src = patent US20130102527A1

# target.or.test.system: T1, proteasome β5 subunit (chymotrypsin-like site) in human cells and cell extracts (human, UniProt P28074 60-263)
# T1 construct: mature; also called Chym-L; chymotrypsin-like sites
# T1 sequence (P28074 60-263): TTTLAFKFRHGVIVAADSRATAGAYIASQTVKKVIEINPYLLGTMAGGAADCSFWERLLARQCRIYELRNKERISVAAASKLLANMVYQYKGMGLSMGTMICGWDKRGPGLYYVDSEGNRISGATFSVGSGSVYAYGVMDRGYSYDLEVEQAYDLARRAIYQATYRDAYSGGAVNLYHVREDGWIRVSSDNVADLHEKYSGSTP
# measurement.notes: competition with activity-based probe in living HEK-293 cells, 4 h; Chym-L site
Non-standard residues stand in square brackets, D forms with d. No end group written: not given here. Phe(4-CH2NH2) = NCc1ccc(C[C@H](N)C(=O)O)cc1; N3Phe = N-terminal azido-phenylalanine; 4Pal = N[C@@H](Cc1ccncc1)C(=O)O; VS = vinyl sulfone warhead
value.type: IC50

Briefly, IC50 measured for [N3Phe][4Pal]L[Phe(4-CH2NH2)]-{VS} (also: TFA salt) [N3-Phe-Ala(4-pyridine)-Leu-Phe(4-CH2NH2-TFA)-VS (50)] : > 50 µM
